Tested on: OVCAR-4 ovarian
Assay: NCI-60 one-dose screen, 48 h (100 = growth as untreated, 0 = no growth, -100 = all killed)
Conditions: 10 µM
About 83,000 compounds went through this panel and 20% of them were active in at least one assay; those are over-represented in the sample as a whole.
The compounds listed here are annotated with their growth.
Give just the numeric value; % need not be written.

>  <Compound>
CC/C(=C(/c1ccc(OCCN(C)C)cc1)c1ccc(OC(=O)CCCCCCCCC(=O)c2c(C)[nH]c(/C=C3\N=C(c4ccc[nH]4)C=C3OC)c2C)cc1)c1ccccc1

>  <Unit>
%

>  <Result number>
61.6

$$$$
>  <Compound>
COc1ccc(-c2nc3sc(-c4ccccc4)c(-c4ccccc4)n3c2/C=C/C(=O)c2ccccn2)cc1

>  <Unit>
%

>  <Result number>
43.7

$$$$
>  <Compound>
CC/C(=C(/c1ccc(OCCN(C)C)cc1)c1ccc(OC(=O)CCC(=O)c2c(C)[nH]c(/C=C3\N=C(c4ccc[nH]4)C=C3OC)c2C)cc1)c1ccccc1

>  <Unit>
%

>  <Result number>
37.4

$$$$
>  <Compound>
CCOC(=O)CCC(NC(=O)c1ccc(N)cc1)C(=O)OCC (stereo not given)

>  <Unit>
%

>  <Result number>
95.7

$$$$
>  <Compound>
CCCCCCCNc1nc(C=O)ncc1-c1ccc(C(F)(F)F)cc1

>  <Unit>
%

>  <Result number>
110

$$$$
>  <Compound>
CN(C)c1ccc(N=C2C=CC(=O)c3ccccc32)cc1

>  <Unit>
%

>  <Result number>
71.5

$$$$
>  <Compound>
CCN(CC)Cc1cc(Nc2ccnc3cc(Cl)ccc23)ccc1OC

>  <Unit>
%

>  <Result number>
68.2

$$$$
>  <Compound>
COc1ccc(NC(=O)Cc2nc3nc4sc(C)c(C)c4c(=O)n3[nH]2)cc1

>  <Unit>
%

>  <Result number>
113

$$$$
>  <Compound>
Nc1nccc(Nc2ccccc2)n1

>  <Unit>
%

>  <Result number>
108

$$$$
>  <Compound>
Clc1ccc(-c2cn(-c3ccccc3)c(-c3ccccc3)n2)c(Cl)c1

>  <Unit>
%

>  <Result number>
-100

$$$$

For the next question, use this compound.
Record O=C(/C=C/c1cc2ccccc2[nH]c1=O)c1ccc2c(c1)OCO2 , field growth: 88
